targetOfAssay: human CYP11B1 (Homo sapiens, UniProt P15538)
Construct: The full length cDNA for human CYP11B1 was obtained by PCR from human adrenal cDNA
Sequence (P15538 25-503): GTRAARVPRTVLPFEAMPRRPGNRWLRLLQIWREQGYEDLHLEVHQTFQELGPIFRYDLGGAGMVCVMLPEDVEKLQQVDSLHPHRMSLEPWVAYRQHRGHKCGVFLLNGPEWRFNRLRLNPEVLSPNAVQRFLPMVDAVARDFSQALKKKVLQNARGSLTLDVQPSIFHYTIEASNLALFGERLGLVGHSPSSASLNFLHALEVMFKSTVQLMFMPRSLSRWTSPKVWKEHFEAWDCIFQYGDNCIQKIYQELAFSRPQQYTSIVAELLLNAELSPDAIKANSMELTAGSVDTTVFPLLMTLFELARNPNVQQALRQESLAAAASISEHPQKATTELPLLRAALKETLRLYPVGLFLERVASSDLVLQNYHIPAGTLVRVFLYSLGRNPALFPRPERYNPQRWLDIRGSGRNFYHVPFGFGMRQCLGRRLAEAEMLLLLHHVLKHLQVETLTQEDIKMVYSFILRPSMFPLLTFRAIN
procedureSummary: Inhibitor potency for human CYP11B1 in V79 cells expressing the enzyme (HPLC steroid analysis)
conditionLabel: V79 cells (over)expressing human CYP11B1; 1 hour with inhibitor, then 11-deoxycorticosterone 500 nM for another hour; read-out: IC50 11B1
Description: Inhibitor potencies for human CYP11B1 and CYP11B2 were determined in an in vitro assay using V79 cells in which human CYP11B1 or CYP11B2 are expressed. […] Next, cells were incubated for 1 hour in serum free medium with cumulative inhibitor concentrations. […] Steroids were detected by UV absorption at 243 nm (Shimadzu, Tokyo, Japan). To quantitate the steroids, peak area ratios versus the internal standard (methylprednisolone) were determined and compared with calibration curves. […]
reportedProperty: pIC50
Scale: negative log10 of molar concentration, which is what pIC50 denotes.

Use the examples below as a reference point.
{"columns": ["recordSmiles", "targetOfAssay", "reportedProperty", "testValue"],
 "data": [
  ["COC(=O)c1cncn1Cc1ccc(C#N)cc1", "human CYP11B1 (Homo sapiens, UniProt P15538)", "pIC50", 7.32],
  ["OCCCc1cncn1Cc1ccc(F)cc1", "human CYP11B1 (Homo sapiens, UniProt P15538)", "pIC50", 6.94],
  ["N#Cc1ccc(Cn2cncc2C=O)cc1", "human CYP11B1 (Homo sapiens, UniProt P15538)", "pIC50", 6.32],
  ["COC(=O)CCc1cncn1Cc1ccc(Br)cc1", "human CYP11B1 (Homo sapiens, UniProt P15538)", "pIC50", 7.24]
]}

Now, please, on to the next molecule.
Given N#Cc1ccc(Cn2cncc2-c2cccc(F)c2)cc1 , state its recorded pIC50.
7.50
